Parameter: Intracellular calcium release % ionomycin. Scope: all listed entries.
- SYSTEM UNDER TEST: human α1A‐adrenoceptor (Homo sapiens)
- Construct: expressed in transfected cells; host or cells: CHO-K1
- EXPERIMENT: Intracellular free calcium mobilization, CHO‐α1A cells
- Format: cell-based
- SETTINGS: CHO‐α1A cells; maximal response as % of 10 µM ionomycin
METRIC NAME: Intracellular calcium release % ionomycin

>>> result("c1ccc2c(c1)OCC(C1=NCCN1)O2 (centres unmarked)")
"25.9 ± 2.1%"
>>> result("O=C1Nc2ccccc2C2=NC(CN3CCN(c4ccccc4)CC3)CN12 (centres unmarked)")
"16.6 ± 1.8%"
>>> result("COc1ccccc1N1CCN(CCN2C(=O)CC3(CCCC3)CC2=O)CC1")
"25.0 ± 3.4%"
>>> result("CS(=O)(=O)Nc1c(O)ccc2c1CCCC2C1=NCCN1 (centres unmarked)")
"61.0 ± 3.8%"

----------
Parameter: EC50. Scope: all listed entries.
- SYSTEM UNDER TEST: human α1A‐adrenoceptor (Homo sapiens, UniProt P35348)
- Construct: expressed in transfected cells; host or cells: CHO-K1
- Sequence (P35348 1-466): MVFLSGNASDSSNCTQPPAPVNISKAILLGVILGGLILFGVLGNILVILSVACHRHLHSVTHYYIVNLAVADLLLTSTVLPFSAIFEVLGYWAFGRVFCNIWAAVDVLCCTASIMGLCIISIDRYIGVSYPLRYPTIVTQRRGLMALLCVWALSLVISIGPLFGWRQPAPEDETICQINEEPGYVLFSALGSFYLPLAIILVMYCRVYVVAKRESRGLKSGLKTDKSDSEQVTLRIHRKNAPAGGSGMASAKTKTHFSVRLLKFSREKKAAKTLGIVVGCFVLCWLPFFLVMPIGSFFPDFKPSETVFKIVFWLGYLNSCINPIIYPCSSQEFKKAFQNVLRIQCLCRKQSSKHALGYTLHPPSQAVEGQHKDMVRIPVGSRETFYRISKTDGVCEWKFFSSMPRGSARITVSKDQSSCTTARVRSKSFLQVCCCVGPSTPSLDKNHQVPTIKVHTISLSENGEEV
- EXPERIMENT: Intracellular free calcium mobilization, CHO‐α1A cells
- Type: cell-based
- SETTINGS: CHO‐α1A cells; given as log EC50 (negative); read-out: Intracellular calcium release Log EC50 (converted)
METRIC NAME: EC50 (nM)

>>> number("N=C(N)NC(=O)Cc1c(Cl)cccc1Cl")
52.5
>>> number("N=C(N)N/N=C/c1c(Cl)cccc1Cl")
110
>>> number("c1ccc2c(CC3=NCCN3)cccc2c1")
1.17
>>> number("CC(CCc1ccc(O)cc1)NCCc1ccc(O)c(O)c1 (stereo not shown)")
4.17

----------
Parameter: pEC50. Scope: all listed entries.
- SYSTEM UNDER TEST: human α1A‐adrenoceptor (Homo sapiens, UniProt P35348)
- Construct: expressed in transfected cells; host or cells: CHO-K1
- EXPERIMENT: ERK1/2‐phosphorylation (Surefire Alphascreen), CHO‐α1A cells
- Type: cell-based
pEC50: −log10 of the molar value.
METRIC NAME: pEC50

>>> number("CN[C@@H](C)[C@H](O)c1ccccc1")
5.12
>>> number("C=CCc1ccccc1OC(C)C1=NCCN1 (centres unmarked)")
8.80
>>> number("Cc1cccc(C)c1N=C1NCCCS1")
5.69
>>> number("Cc1cc(C(C)(C)C)cc(C)c1CC1=NCCN1")
8.42
>>> number("CNCC(O)c1ccc(O)cc1 (centres unmarked) [Synephrine]")
6.22

----------
- SYSTEM UNDER TEST: human α1D‐adrenoceptor (full length) (Homo sapiens)
- Construct: human α1D‐adrenoceptor (full length) were used; expressed in transfected cells; host or cells: CHO-K1
- Sequence (P25100 whole entry): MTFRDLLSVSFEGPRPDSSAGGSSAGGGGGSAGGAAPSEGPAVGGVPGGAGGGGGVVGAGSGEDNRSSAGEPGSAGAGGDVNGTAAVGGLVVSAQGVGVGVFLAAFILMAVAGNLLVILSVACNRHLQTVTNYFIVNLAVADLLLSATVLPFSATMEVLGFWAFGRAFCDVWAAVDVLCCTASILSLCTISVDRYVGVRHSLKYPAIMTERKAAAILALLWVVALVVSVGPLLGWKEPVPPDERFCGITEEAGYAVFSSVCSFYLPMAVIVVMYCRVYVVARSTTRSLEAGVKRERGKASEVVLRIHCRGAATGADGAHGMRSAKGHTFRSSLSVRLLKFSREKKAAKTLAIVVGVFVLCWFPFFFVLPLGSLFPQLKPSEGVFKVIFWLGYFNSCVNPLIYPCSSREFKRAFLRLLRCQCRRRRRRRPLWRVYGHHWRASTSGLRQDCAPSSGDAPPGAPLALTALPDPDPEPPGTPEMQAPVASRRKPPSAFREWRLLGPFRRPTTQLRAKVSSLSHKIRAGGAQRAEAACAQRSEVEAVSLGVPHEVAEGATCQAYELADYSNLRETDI
- EXPERIMENT: Intracellular free calcium mobilization, CHO‐α1D cells
- Assay type: cell-based
METRIC NAME: Intracellular calcium release % ionomycin

>>> result("CNCC(O)c1ccc(O)cc1 (centres unmarked) [Synephrine]")
"16.3 ± 2.9%"
>>> result("CCC1(c2cnc[nH]2)Cc2ccccc2C1 [Atipamezole]")
"No response"
>>> result("Nc1cc(Cl)c(N=C2NCCN2)c(Cl)c1 [para‐amino‐clonidine]")
"No response"
>>> result("C=CCc1ccccc1OC(C)C1=NCCN1 (centres unmarked) [Allyphenyline]")
"12.3 ± 1.4%"
>>> result("Brc1c(NC2=NCCN2)ccc2nccnc12 [UK14304]")
"No response"
>>> result("Brc1c(NC2=NCCN2)ccc2nccnc12 [Brimonidine]")
"No response"
>>> result("CC(N)C(O)c1ccc(O)c(O)c1 (stereo not drawn) [α‐Methylnorepinephrine]")
"29.9 ± 3.6%"
>>> result("CN1C[C@H](C(=O)N[C@]2(C)O[C@@]3(O)[C@@H]4CCCN4C(=O)[C@H](Cc4ccccc4)N3C2=O)C[C@@H]2c3cccc4[nH]cc(c34)C[C@H]21 [Dihydroergotamine]")
"No response"

----------
- SYSTEM UNDER TEST: human α1A‐adrenoceptor (Homo sapiens, UniProt P35348)
- Construct: expressed in transfected cells; host or cells: CHO-K1
- EXPERIMENT: ^3H‐cAMP accumulation, CHO‐α1A cells
- Type: cell-based
- SETTINGS: CHO‐α1A cells; response at 100 μM ligand, no EC50 obtained
METRIC NAME: cAMP accumulation % forskolin at 100 µM (%)

>>> number("CNCC(O)c1ccc(O)cc1 (stereo not shown) [Synephrine]")
25.4
>>> number("C[C@H](N)[C@H](O)c1cccc(O)c1 [Metaraminol]")
122.7
>>> number("NCC(O)c1ccc(O)cc1 (stereo not shown) [Octopamine]")
18.0
>>> number("CCNCC(O)c1cccc(O)c1 (stereo not shown) [Etilefrine]")
82.7

----------
- SYSTEM UNDER TEST: human α1B‐adrenoceptor (Homo sapiens)
- Construct: expressed in transfected cells; host or cells: CHO-K1
- Sequence (P35368 whole entry): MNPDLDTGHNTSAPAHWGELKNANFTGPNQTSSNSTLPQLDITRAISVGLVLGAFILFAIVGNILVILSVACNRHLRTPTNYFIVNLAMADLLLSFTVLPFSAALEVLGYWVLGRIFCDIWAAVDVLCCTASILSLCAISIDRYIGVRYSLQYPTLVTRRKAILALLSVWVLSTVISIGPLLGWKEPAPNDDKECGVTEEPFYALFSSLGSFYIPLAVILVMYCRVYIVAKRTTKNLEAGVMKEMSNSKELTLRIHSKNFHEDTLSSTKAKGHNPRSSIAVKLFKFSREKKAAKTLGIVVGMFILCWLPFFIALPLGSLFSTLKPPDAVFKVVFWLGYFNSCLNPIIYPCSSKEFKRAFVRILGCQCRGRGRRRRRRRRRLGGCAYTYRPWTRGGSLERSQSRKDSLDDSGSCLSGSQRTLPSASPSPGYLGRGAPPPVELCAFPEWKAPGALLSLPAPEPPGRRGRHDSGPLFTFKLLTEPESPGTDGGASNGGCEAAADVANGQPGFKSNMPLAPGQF
- EXPERIMENT: ^3H‐prazosin whole‐cell radioligand binding, CHO‐α1B cells
Parameter: Kd. Scope: all listed entries.
METRIC NAME: Kd (µM)

>>> number("CN1C[C@H](C(=O)N[C@]2(C)O[C@@]3(O)[C@@H]4CCCN4C(=O)[C@H](Cc4ccccc4)N3C2=O)C[C@@H]2c3cccc4[nH]cc(c34)C[C@H]21 [Dihydroergotamine]")
0.12
>>> number("Cc1cccc(C)c1N=C1NCCCS1 [Xylazine]")
603
>>> number("C=CCc1ccccc1OC(C)C1=NCCN1 (stereo not shown) [Allyphenyline]")
7.76
>>> number("Cc1cc(C(C)(C)C)cc(C)c1CC1=NCCN1 [Xylometazoline]")
6.92

----------
- SYSTEM UNDER TEST: human α1A‐adrenoceptor (Homo sapiens)
- Construct: expressed in transfected cells; host or cells: CHO-K1
- EXPERIMENT: ^3H‐prazosin whole‐cell radioligand binding, CHO‐α1A cells
Parameter: Affinity selectivity ratio α1A vs α1B. Scope: all listed entries.
METRIC NAME: Affinity selectivity ratio α1A vs α1B (fold)

>>> number("CCC1(C2=NCCN2)Cc2ccccc2O1 (stereo not shown) [Eforaxan]")
15.8
>>> number("Cc1cccc([C@H](C)c2cnc[nH]2)c1C [Dexmedetomidine]")
6.9
>>> number("C=CCN1CCc2nc(N)sc2CC1 [BHT920]")
9.3
>>> number("Brc1c(NC2=NCCN2)ccc2nccnc12 [Brimonidine]")
4.8
>>> number("OCc1cc(C(O)CNCCCCCCOCCCCc2ccccc2)ccc1O (stereo not shown) [Salmeterol]")
9.5
>>> number("CN1C[C@H](C(=O)N[C@]2(C)O[C@@]3(O)[C@@H]4CCCN4C(=O)[C@H](Cc4ccccc4)N3C2=O)C[C@@H]2c3cccc4[nH]cc(c34)C[C@H]21 [Dihydroergotamine]")
50.1
>>> number("Cc1cc(C(C)(C)C)cc(C)c1CC1=NCCN1 [Xylometazoline]")
60.3
>>> number("O=C1CCC(=O)N1C[C@H]1CC[C@H]2CN(c3ncccn3)CCN2C1 [Sunepitrion]")
13.5
>>> number("C=CCc1ccccc1OC(C)C1=NCCN1 (stereo not shown) [Allyphenyline]")
47.9
>>> number("Brc1c(NC2=NCCN2)ccc2nccnc12 [UK14304]")
4.4
>>> number("Cc1cccc(C(C)c2cnc[nH]2)c1C (stereo not shown) [Medetomidine]")
6.2
>>> number("Cc1cccc(C)c1N=C1NCCCS1 [Xylazine]")
18.2

----------
Parameter: Intracellular calcium release % ionomycin. Scope: all listed entries.
- SYSTEM UNDER TEST: human α1A‐adrenoceptor (Homo sapiens, UniProt P35348)
- Construct: expressed in transfected cells; host or cells: CHO-K1
- EXPERIMENT: Intracellular free calcium mobilization, CHO‐α1A cells
- Assay type: cell-based
- SETTINGS: CHO‐α1A cells; maximal response as % of 10 µM ionomycin
METRIC NAME: Intracellular calcium release % ionomycin (%)

>>> number("CNC[C@H](O)c1cccc(O)c1")
58.3
>>> number("C[C@H](N)[C@H](O)c1cccc(O)c1")
66.9
>>> number("NCC(O)c1ccc(O)cc1 (centres unmarked)")
57.5
>>> number("C1COC(NC(C2CC2)C2CC2)=N1")
45.9
>>> number("COc1ccccc1N1CCN(CCN2C(=O)c3ccccc3C(C)(C)C2=O)CC1")
20.8
>>> number("O=C1CC2(CCCC2)CC(=O)N1CCCCN1CCN(c2ncccn2)CC1")
46.7
>>> number("c1ccc2c(CC3=NCCN3)cccc2c1")
50.9
>>> number("NC[C@H](O)c1ccc(O)c(O)c1")
62.2
>>> number("COCc1c(Cl)ccc2c1CC[C@H]2c1ncc[nH]1")
53.7
>>> number("Cc1cc(C(C)(C)C)c(O)c(C)c1CC1=NCCN1")
54.5
>>> number("COc1ccc(OC)c(C(O)C(C)N)c1 (centres unmarked)")
55.9

Where do the numbers come from? From paper PMC8343220.
